B1: EPB41L3 (parent)
chain: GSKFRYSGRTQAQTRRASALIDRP

variants of: B1; assay: protein stability index of a GFP-peptide fusion (GPS, HEK-293T) (PSI 1-6); higher = more stable; conditions: c terminus: a fixed tail appended;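 note: lentivirally expressed fusions sorted by FACS into six bins by GFP to DsRed ratio, PSI derived from sequencing read proportions per bin multiplied by bin number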
endpoint label: protein stability index
Write no unit; give the number alone.

Reported protein stability index ( K3E ) = 2.19

Reported protein stability index ( T14Y ) = 2.73

Reported protein stability index ( S7R ) = 3.73

Reported protein stability index ( P24Y ) = 2.78

Reported protein stability index ( Y6G ) = 3.91

Reported protein stability index ( R23I ) = 2.11
